pKi: −log10 of the molar value.
pKi values for UniProt Q9QYN8 compiled from several publications are listed below.
Sequence (Q9QYN8 whole entry): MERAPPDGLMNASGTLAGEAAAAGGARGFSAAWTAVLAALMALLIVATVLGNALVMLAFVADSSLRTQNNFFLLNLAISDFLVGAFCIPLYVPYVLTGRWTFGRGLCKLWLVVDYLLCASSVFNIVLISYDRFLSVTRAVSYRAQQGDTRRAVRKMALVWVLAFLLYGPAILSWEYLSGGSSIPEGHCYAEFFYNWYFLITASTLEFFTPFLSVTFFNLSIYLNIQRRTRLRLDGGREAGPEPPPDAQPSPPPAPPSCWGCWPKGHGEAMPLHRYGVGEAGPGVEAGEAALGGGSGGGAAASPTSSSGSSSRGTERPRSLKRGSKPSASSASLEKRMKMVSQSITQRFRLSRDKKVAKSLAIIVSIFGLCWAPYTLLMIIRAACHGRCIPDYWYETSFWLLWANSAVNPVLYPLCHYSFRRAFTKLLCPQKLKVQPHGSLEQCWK

{"columns": ["compound", "value-operator", "pKi"],
 "data": [
  ["C[C@H](CN)C(=O)N1CCN(CCCOc2ccc(C(=O)C3CC3)cc2)CC1", "=", 8.05],
  ["C[C@@H]1Cc2cc(OCCCN3CCCC3)ccc2[C@H]2CC[C@]3(C)[C@@H](N4CCCC4)CC[C@H]3[C@H]12", "=", 7.74],
  ["CC1CCN(CCCOc2ccc(-c3ccc(C(=O)NC(C)C)cc3)cc2)CC1", "=", 8.42],
  ["O=C1c2ccc(-c3ccc(F)c(F)c3)cc2CCN1CCN1CCCC1", "=", 7.09],
  ["N#Cc1ccc(-c2ccc3cc(CCN4CC=CC4)ccc3c2)cc1", "=", 7.18],
  ["CN(C)c1ccc(-c2c[nH]c(SCCc3c[nH]cn3)n2)cc1", "=", 7.53],
  ["NCCC(=O)N1CCN(CCCOc2ccc(C(=O)C3CC3)cc2)CC1", "=", 9.30],
  ["CC(C)N1CCC(Oc2ccc(-c3ccc(=O)[nH]n3)cn2)CC1", "=", 7.00],
  ["CCC(CC)c1nc(-c2ccc(OCCCN3CCCN(C(=O)[C@@H](C)NC(=O)c4ccco4)CC3)cc2F)no1", "=", 8.64],
  ["CCCCCC(=O)c1ccc(OCCCN2CCN(C(=O)[C@@H](NC(=O)OC(C)(C)C)C(C)C)CC2)cc1", "=", 7.01],
  ["Nc1nc(N2CCNCC2)c2ccc(-c3ccco3)cc2n1", "=", 5.59],
  ["CCCc1ccc(-c2c[nH]c(SCCc3c[nH]cn3)n2)cc1", "=", 7.40],
  ["CCCCCC(=O)c1ccc(OCCCN2CCN(C(=O)[C@H](N)Cc3ccncc3)CC2)cc1", "=", 8.04],
  ["CCC(=O)N[C@H](C)C(=O)N1CCN(CCCOc2ccc(-c3noc(CC4CCCC4)n3)c(F)c2)CC1", "=", 8.14],
  ["COc1ccc(C(=O)N[C@H](C)C(=O)N2CCCN(CCCOc3ccc(-c4noc(CC5CCCC5)n4)c(F)c3)CC2)cc1", "=", 8.96],
  ["C[C@@H]1CCCN1CCc1ccc(-c2ccc(=O)n(-c3ccc(F)cc3)n2)cc1", "=", 7.32],
  ["C[C@@H](NC(=O)c1ccc(F)cc1)C(=O)N1CCCN(CCCOc2ccc(-c3noc(CC4CCCC4)n3)c(F)c2)CC1", "=", 8.92],
  ["O=C(NC1CCCC1)N1C[C@@H]2CC=C(c3ccc(CCN4CCCC4)cc3)[C@@H]2C1", "=", 7.80],
  ["CC1CCN(C(=O)c2ccc(-c3ccc(OCCCN4CCOCC4)cc3)cc2)CC1", "=", 7.15],
  ["C[C@]12CC[C@@H]3c4ccc(OCCCN5CCNC(=O)C5)cc4CC[C@H]3[C@@H]1CC[C@@H]2N1CCCC1", "=", 8.49],
  ["COC[C@@H]1CCCN1CCCOc1ccc(-c2nn(C(C)C)c(=O)c3ccsc23)cc1", "=", 5.93],
  ["CC(C)CCC(=O)N[C@H](C)C(=O)N1CCN(CCCOc2ccc(-c3noc(CC4CCCC4)n3)c(F)c2)CC1", "=", 8.21],
  ["CCCCCC(=O)c1ccc(OCCCN2CCN(S(C)(=O)=O)CC2)cc1", "=", 7.67],
  ["C[C@@H]1CCCN1CCCOc1ccc(-c2ccc(C#N)cc2)cc1", "=", 8.71],
  ["C[C@@H]1CCCN1CCCOc1ccc(C(=O)C(C)(C)N2CCOCC2)cc1", "=", 7.48],
  ["O=C(c1ccc(Oc2cccc(Cl)c2)nc1)N1CCCN(C2CC2)CC1", "=", 7.12],
  ["CCCCCC(=O)c1ccc(OCCCN2CCN(S(=O)(=O)C(C)C)CC2)cc1", "=", 7.90],
  ["Cn1nc(-c2ccc(N3CCN(C4CCCC4)CC3)cc2)ccc1=O", "=", 6.59],
  ["O=C(c1ccc(OCCCN2CCCCC2)cc1)C1CC1", "=", 8.40],
  ["O=C1c2ccc(-c3ccc(C(F)(F)F)cc3)cc2CCN1CCN1CCCC1", "=", 7.00],
  ["C[C@@H](NC(=O)c1ccco1)C(=O)N1CCCN(CCCOc2ccc(-c3noc(-c4cncs4)n3)c(F)c2)CC1", "=", 8.21],
  ["CCN(CC)CCCOc1ccc(-c2ccc(C(=O)N3CCCC3C)cc2)cc1 (centres undefined)", "=", 8.14],
  ["NC(=O)c1ccc(-c2c[nH]c(SCCc3c[nH]cn3)n2)cc1", "=", 7.55],
  ["C[C@H]1CCCN1CCCOc1ccc(/C(CN2CCCCC2=O)=N/OC(C)(C)C)cc1", ">", 7.00],
  ["CN(C)CCNc1c2c(nc3ccccc13)CCCCC2", "=", 6.83],
  ["O=[N+]([O-])c1cccc(-c2c[nH]c(SCCc3c[nH]cn3)n2)c1", "=", 7.51],
  ["C[C@@H]1CCCN1CCCOc1ccc2c(c1)CCc1n[nH]c(=O)cc1-2", "=", 7.72],
  ["CS(=O)(=O)N1CCCc2cc(OCCCN3CCCCC3)ccc2C1", "=", 7.15],
  ["C[C@@H]1CCCN1CCCOc1ccc(-c2ccc(=O)n(Cc3ccccc3)c2)cc1", "=", 8.00]
]}
